Tested on: Epstein-Barr virus nuclear antigen 1 (EBNA-1) DNA-binding domain, Human herpesvirus 4
Test: blockers of EBV EBNA-1 DNA binding – biochemical, fluorescence polarization, triplicate, confirmation (AID 2292);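 note: plate controls were EBNA-1 protein with DMSO for no effect and wells lacking EBNA-1 for full effect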
Conditions: Recombinant EBNA-1 DBD, Cy5-DNA fluorescence polarization; at 14.8 µM; hits give high values
Some of the results follow.
Endpoint Name: inhibition (%)
Give a bare numeral; the unit % is implied.

Answered cases to consult:
Smiles Code: COC(=O)CSc1nc(C)c2ccc(OC)cc2n1
Assayed Target: Epstein-Barr virus nuclear antigen 1 (EBNA-1) DNA-binding domain, Human herpesvirus 4
Unit String: %
inhibition: -0.23
--
Smiles Code: COc1ccc(CNc2nc3c(c(=O)[nH]c(=O)n3C)n2Cc2ccccc2)cc1
Assayed Target: Epstein-Barr virus nuclear antigen 1 (EBNA-1) DNA-binding domain, Human herpesvirus 4
Unit String: %
inhibition: 7.27
--
Smiles Code: O=C(Nc1cccc(NC(=O)c2ccc(Br)cc2)c1)c1ccccc1
Assayed Target: Epstein-Barr virus nuclear antigen 1 (EBNA-1) DNA-binding domain, Human herpesvirus 4
Unit String: %
inhibition: 20.8
--
Smiles Code: Nc1nnc(SCC(=O)Nc2ccc3nc(SCC(=O)Nc4ccccc4)sc3c2)s1
Assayed Target: Epstein-Barr virus nuclear antigen 1 (EBNA-1) DNA-binding domain, Human herpesvirus 4
Unit String: %
inhibition: 24.9
--
Smiles Code: C/C(=N\N=C(N)N)c1ccc(Cl)cc1
Assayed Target: Epstein-Barr virus nuclear antigen 1 (EBNA-1) DNA-binding domain, Human herpesvirus 4
Unit String: %
inhibition: 2.77
--
Smiles Code: O=C(CCCn1c(SCC(=O)c2ccc(F)cc2)nc2ccccc2c1=O)NCc1ccco1
Assayed Target: Epstein-Barr virus nuclear antigen 1 (EBNA-1) DNA-binding domain, Human herpesvirus 4
Unit String: %
inhibition: 16.5

Challenge: I would be grateful if you could share the reported inhibition for `COc1ccc(-c2ccc(Nc3ccc(S(=O)(=O)N4CCCC4)cc3)nn2)cc1OC` .
Response given: -1.8

Data provenance: PubChem BioAssay AID2292
